Data credit: PubChem BioAssay (NCI)

Can you tell me TGI for the items I'm about to list?
system: NCI-H226 lung; test: NCI tumour cell line growth inhibition, 48 h
Answers are plain numbers, in µM.

{"compound": "CC(C)[C@@H]1CC[C@@H]2[C@@H]1[C@H](OC(=O)/C=C/c1ccccc1)[C@]1(C(C)C)C[C@@H](OC(=O)CO)[C@@]2(C)O1", "measured value": 10.9}

Next up:
Provide only the value of recorded TGI for CC/C=C\C/C=C\C[C@H]1C/C=C2/C(=O)C=C[C@H]2C/C=C\CCC(=O)O1
8.54

* * *

tested on: EKVX NSCLC; test: NCI tumour cell line growth inhibition, 48 h; in the data active means GI50 below about 0.43 µM; inactive means the rest
Assign a class; possible classes are active, inactive

Answered cases to consult:
{"compound": "COc1ccc(-c2nocc2-c2cc(OC)c(OC)c(OC)c2)cc1", "class": "active"}
{"compound": "O=C(CN1CCN(c2ccc(Cl)cc2)CC1)N1CCN(c2nnc(-c3ccccc3)c(-c3ccccc3)n2)CC1", "class": "inactive"}

Each compound tested received a call. Report the one for CC[C@]12CCCN3CC[C@]4(C(=C(C(=O)OC)C1)Nc1ccccc14)[C@@H]32 .
inactive

Each compound tested received a call. Report the one for COC(=O)c1ccc(C2SCC(=O)N2NC(=O)C(O)c2ccccc2)cc1 (stereo unspecified) .
inactive

Each compound tested received a call. Report the one for S=C(N/N=C(/c1ccccc1)c1ccccn1)Nc1cccc(Cl)c1 .
inactive

* * *

tested on: HCT-116 colon; assay: NCI tumour cell line growth inhibition, 48 h
measurement type: TGI

These recorded examples may help you get a feel for the data.
{"compound": "Cc1ccc(C(=O)NC(C)(C)C)cc1N=NN(C)C", "measurement type": "TGI", "measured value": "> 100 µM"}
{"compound": "COC(=O)C(Cc1nc2ccccc2[nH]c1=O)C(=O)C(=O)Nc1ccc(OC)cc1[N+](=O)[O-] (configuration not stated)", "measurement type": "TGI", "measured value": "> 100 µM"}
{"compound": "CN(C)/C(N)=N/C(N)=S", "measurement type": "TGI", "measured value": "> 100 µM"}

Kindly give each listed record's TGI.
1. Cc1cccc(NC(=O)CC#N)c1Cl
2. O=c1cccc(C#CC#C/C=C/CO)o1
3. N/N=C(\C(=O)Nc1ccc([N+](=O)[O-])cc1)C(C1=Nc2cc([N+](=O)[O-])ccc2NC1)[N+](=O)[O-] (configuration not stated)
4. CC(C)(O)[C@H](CCO)O[Si](c1ccccc1)(c1ccccc1)C(C)(C)C
5. Cc1nc2c(ncn2CCO)c(=O)[nH]1
6. O=c1[nH]c(/C=C(\O)c2ccncc2)nc2ccccc12

> 100 µM
> 100 µM
> 100 µM
17.6 µM
> 100 µM
> 100 µM

Kindly give each listed record's TGI.
1. COC(=O)NN1C(C)=C(C(=O)OC)C2(CCOC2=O)C1(C)O (configuration not stated)
2. Cc1cc(C#N)c(Nc2c(C)cccc2[N+](=O)[O-])s1
3. N#CC1=C(c2ccccc2)C(O)(c2ccccc2)NC1=O (configuration not stated)
4. CCn1cnc2c(NC(C)=O)ncnc21

1: > 100 µM; 2: > 100 µM; 3: > 100 µM; 4: > 100 µM

* * *

Can you tell me TGI for the items I'm about to list?
tested on: ACHN renal; test: NCI tumour cell line growth inhibition, 48 h
*1 amine or outer side, *2 acyl side, *3 side chain or, on linkers, in order; H or OH if unused. Where a SMILES comes first, the peptide text is derived from it. Bridges are numbered along the chain shown (N, C = ends). [ ]: non-standard residue; d: D form. The star is where a group is joined. Phe(3-Me) = Cc1cccc(C[C@H](N)C(=O)O)c1; NH(4-Cl-2-F-phenyl) = Fc1cc(Cl)ccc1N*; Pro(4R-Me) = C[C@H]1CN[C@H](C(=O)O)C1; Propanoyl(3-NMe2) = CN(C)CCC(=O)*; Hyp = O=C(O)[C@@H]1C[C@@H](O)CN1; aThr = C[C@H](O)[C@H](N)C(=O)O; Pip = O=C(O)[C@@H]1CCCCN1; CO = O=C([*:1])[*:2]

{"compound": "CC1Cc2cc(O)ccc2C2[C@@H]1C1CC[C@H](O)[C@@]1(C)C[C@@H]2O[N+](=O)[O-] (some centres undefined)", "TGI": "> 100 µM"}

Kindly give each listed record's TGI.
1. CCCCCCCCCCCCP(=O)(O)OCC(N)C(=O)O (centres undefined)
2. Cc1ccccc1/C=C1\CN(C(=O)OC(C)(C)C)C/C(=C\c2ccccc2C)C1=O
3. Cc1cccc(C[C@H](NC(=O)Nc2ccc(Cl)cc2F)C(=O)N[C@@H]2C(=O)N3C[C@H](OC(=O)CCN(C)C)C[C@H]3C(=O)N3CCCC[C@H]3C(=O)N[C@@H](C)C(=O)N3C[C@H](C)C[C@H]3C(=O)O[C@H]2C)c1 ({NH(4-Cl-2-F-phenyl)-CO}-[Phe(3-Me)][aThr][Hyp](Propanoyl(3-NMe2))[Pip]A[Pro(4R-Me)]; ester 2-C)

> 100 µM
7.15 µM
3.49 µM
